- measured target: Cbl-b (Homo sapiens)
- Construct: Cbl-b-HiBit KI Jurkat Cells were purchased from Promega; host or cells: Cbl-b-HiBiT knock-in Jurkat cells
- Sequence (Q13191 whole entry): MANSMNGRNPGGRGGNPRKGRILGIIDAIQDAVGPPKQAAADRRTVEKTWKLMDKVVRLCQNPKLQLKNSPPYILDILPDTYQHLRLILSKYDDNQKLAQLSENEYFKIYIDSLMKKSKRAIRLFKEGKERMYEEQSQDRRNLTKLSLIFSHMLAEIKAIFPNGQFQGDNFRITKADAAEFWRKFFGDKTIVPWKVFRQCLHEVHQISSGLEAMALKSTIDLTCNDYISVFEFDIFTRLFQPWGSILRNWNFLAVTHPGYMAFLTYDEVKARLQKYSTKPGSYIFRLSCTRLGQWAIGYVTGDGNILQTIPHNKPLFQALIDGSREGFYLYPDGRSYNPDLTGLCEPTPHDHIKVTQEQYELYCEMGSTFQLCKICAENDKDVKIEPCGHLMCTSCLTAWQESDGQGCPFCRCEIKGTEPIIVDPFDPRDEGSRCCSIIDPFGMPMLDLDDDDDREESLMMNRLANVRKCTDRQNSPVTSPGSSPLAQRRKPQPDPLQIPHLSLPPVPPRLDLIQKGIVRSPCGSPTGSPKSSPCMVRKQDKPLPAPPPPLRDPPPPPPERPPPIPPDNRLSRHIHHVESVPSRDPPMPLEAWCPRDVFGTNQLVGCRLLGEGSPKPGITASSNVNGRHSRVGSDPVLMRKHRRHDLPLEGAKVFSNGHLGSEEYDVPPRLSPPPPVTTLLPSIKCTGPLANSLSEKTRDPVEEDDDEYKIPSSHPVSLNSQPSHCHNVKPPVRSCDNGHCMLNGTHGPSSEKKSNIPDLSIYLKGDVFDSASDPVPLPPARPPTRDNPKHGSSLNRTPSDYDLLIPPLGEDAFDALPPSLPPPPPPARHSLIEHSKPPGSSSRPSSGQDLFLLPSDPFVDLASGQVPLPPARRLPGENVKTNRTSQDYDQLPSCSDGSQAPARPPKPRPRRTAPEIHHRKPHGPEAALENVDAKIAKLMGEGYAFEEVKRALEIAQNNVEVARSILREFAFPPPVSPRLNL
- experiment description: Cbl-b Degradation Method A (FACS, anti-Cbl-b antibody staining)
- Assay type: cell-based
- reported conditions: Jurkat, Cbl-b-HiBit KI Jurkat Cells, incubated at least 20 hours; maximum degradation observed; read-out: Cbl-b Degredation Method A Dmax (%)
Would you kindly list Dmax for each of these compounds?

Input: Give measured Dmax for CC(C)n1c(=O)n(C2CCC(=O)NC2=O)c2cccc(N3CCC(CN4CCC5(CC4)CN(c4cc6c(c(C(F)(F)F)c4)CN(c4cccc([C@]7(Cc8nncn8C)C[C@@H](C#N)C7)c4)C6=O)C5)CC3)c21 (some centres unmarked) [Example 284] (Cbl-b (Homo sapiens)).
Output: 35 to 70%

Input: Give measured Dmax for CC1c2nc(N3CCC(CN4CCN(CC5CCN(Cc6cc7c(c(C(F)(F)F)c6)CN(c6cccc([C@]8(Cc9nncn9C)C[C@@H](C#N)C8)c6)C7=O)C6(CC6)C5)CC4)CC3)ccc2C(=O)N1C1CCC(=O)NC1=O (some centres unmarked) [Example 310] (Cbl-b (Homo sapiens)).
Output: 35 to 70%
